# SYSTEM_TESTED: Cytochrome b (Sus scrofa)
# Sequence (P24964 whole entry): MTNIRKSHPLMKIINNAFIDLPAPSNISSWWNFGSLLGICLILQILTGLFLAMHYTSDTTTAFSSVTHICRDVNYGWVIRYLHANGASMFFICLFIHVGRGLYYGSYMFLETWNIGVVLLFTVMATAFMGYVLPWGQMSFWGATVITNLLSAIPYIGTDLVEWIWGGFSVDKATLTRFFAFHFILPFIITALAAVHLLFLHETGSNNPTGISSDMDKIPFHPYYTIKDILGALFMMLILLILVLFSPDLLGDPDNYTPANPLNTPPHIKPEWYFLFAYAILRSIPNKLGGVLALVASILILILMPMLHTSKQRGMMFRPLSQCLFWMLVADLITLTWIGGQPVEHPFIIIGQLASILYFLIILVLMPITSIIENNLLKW
# PROTOCOL_TEXT: Inhibition of Sus scrofa (pig) heart cytochrome bc1 complex using succinate and cytochrome c as substrates by spectrophotometric analysis
Give measured log10 of Ki for each item. Keep answers brief.
Parameter value (number): base-10 log of Ki in nM.

Sample records with log10 of Ki:
compound=CO/C=C(/C(=O)OC)c1ccccc1COc1cc(-c2ccccc2OC(=O)c2ccc(F)cc2)nn1C endpoint_result=1.99
compound=CO/C=C(/C(=O)OC)c1ccccc1COc1cc(-c2ccccc2O)nn1C endpoint_result=0.08
compound=CO/C=C(/C(=O)OC)c1ccccc1COc1cc(-c2cc(Cl)ccc2O)nn1C endpoint_result=-0.24
compound="CO/C=C(/C(=O)OC)c1ccccc1Oc1cc(Oc2ccccc2C#N)ncn1 [AZOXYSTROBIN]" endpoint_result=2.47
compound="COC(=O)N(OC)c1ccccc1COc1ccn(-c2ccc(Cl)cc2)n1 [PYRACLOSTROBIN]" endpoint_result=0.52
compound=CO/C=C(/C(=O)OC)c1ccccc1COc1cc(-c2ccccc2OC)nn1C endpoint_result=1.46
compound=CO/C=C(/C(=O)OC)c1ccccc1COc1cc(-c2cc(C)ccc2O)nn1C endpoint_result=0.49
compound=CO/N=C(/C(=O)OC)c1ccccc1COc1cc(-c2ccccc2O)nn1C endpoint_result=0.58

I'm hoping you can list log10 of Ki for every compound here, please.
1. CO/N=C(/C(=O)OC)c1ccccc1COc1ccccc1C [KRESOXIM-METHYL]
2. CO/C=C(/C(=O)OC)c1ccccc1COc1cc(-c2cc(C)ccc2OC)nn1C

Key:
[2.20, 1.30]

Exercise: Quickly give me recorded log10 of Ki for CO/C=C(/C(=O)OC)c1ccccc1COc1cc(-c2ccccc2OCc2ccccc2)nn1C
Key: 1.10

Value source: ChEMBL document CHEMBL3046765
